Recorded koff for the following binders
- system-under-test: T1, recombinant human IL-13 (human, UniProt P35225 35-146, limits assumed)
- T1 construct: Bought reagent; also called wild type IL-13
- T1 sequence (P35225 35-146 limits assumed): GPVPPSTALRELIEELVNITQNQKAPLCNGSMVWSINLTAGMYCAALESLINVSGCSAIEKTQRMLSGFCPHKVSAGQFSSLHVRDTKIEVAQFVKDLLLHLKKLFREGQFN
- method: SPR Biacore 3000, antibody captured, cytokine in solution
value-type: koff (s⁻¹)

{"binder": "huB-B13 VL1 × VH1 (antibody, V domains shown, Expressed as a whole antibody, purified on Protein A; also called humanized B-B13 VL1xVH1) VH: EVQLKESGPGLVAPGGSLSITCTVSGFSLTDSSINWVRQPPGKGLEWLGMIWGDGRIDYNDALKSRLSISKDNSKSQVFLEMNSLRTDDTATYYCARDGYFPYAMDFWGQGTSVTVSS VL: DIVLTQSPASLAVSLGQRATISCRASESVDSYGNSYMHWYQQKAGQPPKLLIYLASNLESGVPARFSGSGSRTDFTLTIDPVQAEDAATYYCQQNNEDPRTFGGGTKLEIK", "value-type": "koff", "observed-result": 0.000691}
{"binder": "huB-B13 VL3 × VH2 (antibody, V domains shown, Expressed as a whole antibody, purified on Protein A; also called huB-B13 VL3xVH2; humanized B-B13 VL3xVH2) VH: EVQLKESGPGLVAPGGSLSITCTVSGFSLTDSSINWVRQPPGKGLEWLGMIWGDGRIDYADALKSRLSISKDSSKSQVFLEMTSLRTDDTATYYCARDGYFPYAMDFWGQGTSVTVSS VL: DIVLTQSPASLAVSLGQRATISCRASESVDSYGQSYMHWYQQKAGQPPKLLIYLASNLESGVPARFSGSGSRTDFTLTIDPVQAEDAATYYCQQNAEDSRTFGGGTKLEIK", "value-type": "koff", "observed-result": 0.000112}
{"binder": "huB-B13 VL2 × VH2 (antibody, V domains shown, Expressed as a whole antibody, purified on Protein A; also called humanized B-B13 VL2xVH2) VH: EVQLKESGPGLVAPGGSLSITCTVSGFSLTDSSINWVRQPPGKGLEWLGMIWGDGRIDYADALKSRLSISKDSSKSQVFLEMTSLRTDDTATYYCARDGYFPYAMDFWGQGTSVTVSS VL: DIVLTQSPASLAVSLGQRATISCRASESVDSYGNSYMHWYQQKAGQPPKLLIYLASNLESGVPARFSGSGSRTDFTLTIDPVQAEDAATYYCQQNNEDSRTFGGGTKLEIK", "value-type": "koff", "observed-result": 0.000177}
